Would you kindly list % of fluorescence positive cells for each of these binders?
- Tested target: T1, recombinant hIL-18Rα extracellular domain (human, UniProt Q13478 22-329, biotin label (selection) or fluorescent probe (single-clone FACS), sites not given)
- T1 construct: extracellular domain; also called hIL-18Rα ECD; hIL-18Rα-ECD
- T1 sequence (looked up): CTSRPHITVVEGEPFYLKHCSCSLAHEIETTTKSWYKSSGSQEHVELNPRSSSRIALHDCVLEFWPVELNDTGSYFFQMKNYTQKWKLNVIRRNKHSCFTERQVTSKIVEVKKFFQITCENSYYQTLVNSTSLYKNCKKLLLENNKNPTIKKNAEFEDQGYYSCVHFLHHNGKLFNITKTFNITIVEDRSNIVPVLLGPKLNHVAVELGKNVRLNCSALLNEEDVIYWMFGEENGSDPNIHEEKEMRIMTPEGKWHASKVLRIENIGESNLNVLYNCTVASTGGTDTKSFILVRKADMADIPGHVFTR
- Procedure details: single-clone FACS, yeast display, 10 nM labelled hIL-18Rα ECD
One number for each entry, in %.

# Binder, Assay result
data = [
    ("SEQ ID NO 40 (ligand) YFPKLKSKLSVIRNLNDQVLFIDQGNRPLFEDMTDSDCRDNAPRTIFIISMYKLSGARGMAVTISVKCEKISTLSCENKIISFKEMNPPDVIKDTKSDIIFFQRSVPGHDNKMQFESSSYEGYFLACEKERDLFKLILKKEDELGDRSIMFTVQNED", 87.9),
]

Switching to the query record.
Input: Please report the recorded % of fluorescence positive cells for IL-18 variant polypeptide M12 (ligand) YFPKLKSKLSVIRNLNDQVLFIDQGNRPLFEDMTDSDCRDNAPRTIFIISMYKGSGARGMAVTISVKCEKISTLSCENKIISFKEMNPPDTIKDTKSDIIFFQRSVPGHDNKMQFESSSYEGYFLACEKERDLFKLILKKEDELGDRSIMFTVQNED .
Output: 88.3

FYI, the data here is from patent US20260092093A1.
